Test: yeast display, Sf9 membrane polyspecificity reagent, FACS + sequencing; frameworks hold sequencing errors
readout name: polyreactivity (PSR sort gate)

Some solved entries appear below for comparison.
{"item sequence": "QVQLEESGGGLVQAGGSLRLICAASGIIFYVNAMGWYRQAPGKERELVAAITFGGDSTYYADSVKGRFTISRDNAKNTVYLQMNSLKPEDTAVYYCATDGDPAYPEMEYWGQGTQVTVSS", "result": "low polyreactivity"}
{"item sequence": "QVQLVESGGGLVQAGGSLRLSCAASGLTFDWYTKGWSRQAPGKERELVATINSGGSTDYADSVKGRFTISRDNAKNTVYLQLNSLKPEDTAVYYCNAEYGYSGVGDDYWGQGTQVTVSS", "result": "low polyreactivity"}
{"item sequence": "QVQLVESGGGLVQAGGSLRLSCAASGRIFYLYAMGWYRQATGKERELVAAITWSGGSTTYADSVKGRFTISRDTAKNTVYLQMNSLNPEDTAVYYCNADGWIFPSFSPMDYWGQGTQVTVSS", "result": "low polyreactivity"}
{"item sequence": "QVQLLESGGGLVQAGGSLRLSCAASGSIFRGYAMGWYRQAPGKERELVAGIRGSDGSTYYADSVKGRFTISRDNAKNTVYLQMNSLKPEDTAVYYCAADRRYLDRDKHRYGYWGQGTQVTVSS", "result": "low polyreactivity"}
{"item sequence": "QVQLVETGGGLVQAGGSLRLSCAASGRIFRNNAMGWYRQAPGKERELVAGISSGGSTYYADSVKGRFTMSRDNAKKTVYLQMNNLKPEDTAVYFFAVVGSAYQSRYDYWGQGNQVTVSS", "result": "high polyreactivity"}

Noted for QVQLVESGGGLVQAGGSLRLSCAASGFTFKSYAMGWYRQAPGKERELVAGISRNGGRTYYADSVKGRFTISRDNAKNTVYLQMNSLKPEDTAVYYCAARIYTSRDNYWGQGTQVTVSS : its polyreactivity (PSR sort gate) reads high polyreactivity

Noted for QVQLVQSGGGLVQAGGRLRLSCAASGRIFYYYTMGWYRQAPGKERELVAVISRSGDRTYYADSVKGRFTISRDIAKNTVYLQMNSLKPEDTAVYYCATRWSSARMDYCGQGTQVTVSS : its polyreactivity (PSR sort gate) reads high polyreactivity

----------
Experiment: yeast display, Sf9 membrane polyspecificity reagent, FACS + sequencing; frameworks hold sequencing errors
readout name: polyreactivity (PSR sort gate)

Some solved entries appear below for comparison.
{"item sequence": "QVQLVESGGRLVQAGGRLRLSCAASGSIFLYNARGWYRQAPGKERELVAAINYSGVSTYYADSVKGRFTISRDNAKNTVYLQMNSLKPEDTAVYYCARRWNAFGSKGGYWGQGTQVTVSS", "result": "high polyreactivity"}
{"item sequence": "QDQLVESGGGLVQAGGSLRLSCAASGSIFRVYVMGWYRQAPGKERELVAAITSSDGSTYYADSVKGRFTISRDNAKNTVYLQMNSLKPEDTAVYYCNAEFYSPRVVVPRYWYPGDYWGQGTQVTVSS", "result": "low polyreactivity"}
{"item sequence": "QVQLVESGGGLVQAGGSLRLSCAASGITFQSNDMGWYRQAPGKERELVAAISWSDDTTYYADSVKGRFTISRDNAKNTVYLQMNSLKPEDTAVYYCAAVYDSKSYYYWGQGTQVTVSS", "result": "high polyreactivity"}
{"item sequence": "QVQLVESGGGLVQAGGSLRLSCAASGSYFTYNRMGRYRQAPGKEREFVAANTWTGGSTYADSVKGRFTISRDNAKYTVYLQMNSLKPEDTAVYYCAAVRRFSWYTPVTTRRYYYWGQGTQVTVSS", "result": "high polyreactivity"}
{"item sequence": "QVQLVESGGGLVQAGGSLRLSCAASGSTYYQYVMGWYRQAPGKEMELVAAISGSGGSTYYADSVKGRFTISRDNAKNTVYLQMNSLKPEDTAVYYCAARLRGRGRPPFGYWGQGTQLTVSS", "result": "high polyreactivity"}

Noted for QVQLVESGGGLVQAGGSLRLSCAASGSIFTLYAMGWYRQAPGKDRELVATINWSGGSTSYADSGKGRFTISRDNAKNTVYLQMNSLKPEETAVYYCARLGTYTVVTYDYWGQGTQVTVSS : its polyreactivity (PSR sort gate) reads low polyreactivity

Noted for QVQLVESGGGLVQAGGSLRLSCAASGSTFVWYVMGWYRQAPGKEREFVAAISTSGGRTYYADSVKGRFTISRDNAKNTGYLQMNSLKPEDTAVYYCATRPYFTYRWYDYWGQGTQVTVSS : its polyreactivity (PSR sort gate) reads high polyreactivity

Noted for QVQLVESGGGLVQAGGSLRLSCAASGSIFPYYAMGWYRQAPGKERELVAAISSGDITDYADSVKGRFTISRDNAKNTVYLQMNSLKPEDTAVYYCAAVYDLGYYGPIWAIVLDDYWGQGTQVTVSS : its polyreactivity (PSR sort gate) reads low polyreactivity

Noted for QVHLVESGGGLVQAGGSLRLSCAASGRIFYAYAMGWYRPAPVKERELVAAITWSGGSTYYADSVKGRFTISRDNAKNTVYLQMNSLKPEDTAVYYCAADLRVKYVHTYSYVWYRYDYWGQGTQVTVSS : its polyreactivity (PSR sort gate) reads high polyreactivity

Noted for QVQLVESGGGLVQAGGSLRLSCAASGITFEGYAMGGYRQAPGKERELVAAIRSSGTSTYYADSVKGRFTISRDNAKNTVYLQMNSLKPEDTAVYYCNRARSSSLYDYWGQGTQVTVSS : its polyreactivity (PSR sort gate) reads low polyreactivity

Noted for QVQLVESGGGLVQAGGSLRLSCAASGRTFPSYAMGWYRQAPGTERELVAAITVSGGNTYYAHSVKGRFTISRDNAKNTVYLQMNSLKPEDTAVYYCNTPSYVSWYVHYYYWGQGTQVTVSS : its polyreactivity (PSR sort gate) reads low polyreactivity

Noted for QVQLVESGGGLVQAGGSLRLSCAASGITFLNYAMGWYRQAPGKERELVAAISWSRGRTYYADSVKGRFTISRDNAKNTGYLQMNSLKPEDTAVYDCAADRGVNSYGYWGQGTQVTVSS : its polyreactivity (PSR sort gate) reads high polyreactivity

Noted for QVQLVESGGRLVQAGGSLRLSSAASGSTFSFYVMRWYRQAPGKERELVAAISWSSVGTYSADSVKGRFTISRDNAKNTVYLQMNSLKPEDTAVYYCAADSYRRVAKHGYWGQGTQVTVSS : its polyreactivity (PSR sort gate) reads high polyreactivity

Noted for QEQHVESGGGLVQAGGSLRLSCAATGLIIYYYAMGWYRQAPGKEMEFVAAISTSGSRTYYADSVKGRFTISRDNAKNTVSLQMNSLKPEDTAVYYCAAEPGRSRYAWGYSYPYDYWGQGTQVTVSS : its polyreactivity (PSR sort gate) reads high polyreactivity

Noted for QVQVVESGGGLVQAGGSLRLSCAASGSTFVIYDMGWYRQAPGKERELVAVITIIGGSTYYADAVKGRFTISRDNAKNTVYLELNSLKPEDTAVYDCAVEVGYTDSPYSYDYWGQGTQVTVSS : its polyreactivity (PSR sort gate) reads low polyreactivity

Noted for QVQLVESGGGLVQAGGSLRLSCAASGRTFPEYDMGWYIQAPGKERELVAAISTSGGSTYYADSVKGRFTISRDNAKNTVYLQMNSLKPEDTAVYYCAAQVTSIWGFTYAYRYDYWGQGTQVTVSS : its polyreactivity (PSR sort gate) reads low polyreactivity

Noted for QVQLVESVRGLVQAGGSLRLSCAASGFIFRSYAMGWYRQAPGKEREFVAAISRSGGRTYYADSVKGRFTISRDNAKNTVYLQMNCLKPEDTAVYYCAATVGGSYTFDYWGQGTQVTVSS : its polyreactivity (PSR sort gate) reads high polyreactivity

Noted for QVQLVESVGGLVQAGGSLRLSCAASGSIFRLYAMGWYRQAPGKERELVAAITWSGGSTYYADSVKGRFTISRDNAKNTVYLQMNSLKPEDTAVYYCNALVGGYRSAIFGYWGQGTQVTVSS : its polyreactivity (PSR sort gate) reads high polyreactivity

Noted for QVQLVESGGGLVQAGGSLRLSCAASGSIFRPNTMGWYRQAPGKERELVAAINWSGDDTYYADSVKGRFTISRDNAKNTVYLQMNSLKPEDTAVYYCAVDLFDGVTKLNYDYWGQGTQVTVSS : its polyreactivity (PSR sort gate) reads low polyreactivity

Noted for QVQLVESGGGLVQAGGRLRLSCAASGLTFTYYAMGWYRQAPGKERELVATISWSGGTTYADSVKGRFTISRDNAKNTVYLQMNSLKPEDTAVYYCAADHPLYRRYDYWGQGTQVTVSS : its polyreactivity (PSR sort gate) reads high polyreactivity

Noted for QVQLVESGGGLVQAGGSLRLSCAASGNIFYRYAMGWYRQAPGKERELVAAISGNSGNTYYADSVKGRFTISRDIAKNTVYLQMNSLKPEDTAVYYCAAERRAFGHYSWGQGTQVTVSS : its polyreactivity (PSR sort gate) reads high polyreactivity

----------
Assay: yeast display, Sf9 membrane polyspecificity reagent, FACS + sequencing; frameworks hold sequencing errors
readout name: polyreactivity (PSR sort gate)

{"item sequence": "QVQLVESGGGLVQAGGSLRLSCAASGSIFYANVKGWSRQAPGKERELDATISISSSTNYADSVKGRFTISRDNAKNTVYLQMNSLKPEDTAVYYCNASFGHHYSYWVDTSYDYWGQGTQVTVSS", "readout name": "polyreactivity (PSR sort gate)", "result": "low polyreactivity"}
{"item sequence": "QVHLVESGGGLVKAGGSLRLSCAASGRTFAQYVMGWYRQAPGKERELVAAITWSGGSSYYADSVKGRFTISRDNAKNTVYLQMNSLKPEDTALYYCAVKGAGGPKDDYWGQGTQVTVSS", "readout name": "polyreactivity (PSR sort gate)", "result": "high polyreactivity"}
{"item sequence": "QVQLVESGGGLVQARGSLRLSCAASGSIFPNYAMGWYRQAPGKERELVAAISSSGGRTYYADSVKGRFTSSRDNAKNTVYLQMNRLKPEDTAVYYCAVRGYWGEGTQVTVSS", "readout name": "polyreactivity (PSR sort gate)", "result": "low polyreactivity"}
{"item sequence": "QVQLVESGGGLVQAGGSLRLSCAASGNTFYQYAMGWYRQAPGKERELVAAIDWSGGSTYADSVKGRFTISRDNAKNTVYLQINSLKPEDTAVYYCNASVKPSNVWSRGYDYWGQGTQVTVSS", "readout name": "polyreactivity (PSR sort gate)", "result": "low polyreactivity"}
{"item sequence": "QVQLGESGGGLVQAGGSLRLSCAASGRTFGYNAIGWYRQAPGKEMELVAVIRSGGSTYYADSVKGRFTISRDNAKNTVYLQMNSLKPEDTAVYYCNADVLPTWYSPELDYWGQGTQVTVSS", "readout name": "polyreactivity (PSR sort gate)", "result": "low polyreactivity"}
{"item sequence": "QVLLVESGGRLVQAGGSLRLSSAASGRTLNINAMGWYRQAPGKERELVAVISFNGGGTYYADSVKGRFTISRDNGKNTVYLQMNSLKPEDTAVYYCNAVRDRYASDYWGQGTQVTVTS", "readout name": "polyreactivity (PSR sort gate)", "result": "low polyreactivity"}
{"item sequence": "QVQLVESGGGLVQAGGSLRLSCAASGSTFRFYAMGWYRQAPGKERELVAVISSAGSTNYADSVKGRFTISRDNAKNTVYLQMNSLKTEDTAVYYCAAYRRYSIYNYWGQGTQVTVSS", "readout name": "polyreactivity (PSR sort gate)", "result": "high polyreactivity"}
{"item sequence": "QVQLVESGGGLVQAGGSLRLSCAASGSIFPRYGMGLYRQAPGKERELVAAITTGGNTYYADSVKGRFTISRDNAKNTVYLQMNSLKPEDTAVYYCNARAVTPWFGFYYWGQGTQVTVSS", "readout name": "polyreactivity (PSR sort gate)", "result": "low polyreactivity"}

Noted for QVQLVESGGGLVQAGGSLRLSCAASGFILYFKAMGWYRQAHGKERELVAAITSDGGSTYYADSLKGRFTISRDNAKNTVYLQMNSLKPEDTAVYYCAADASTWYTEEYWGQGTQVTVSS : its polyreactivity (PSR sort gate) reads low polyreactivity

Noted for QVQLVESGGGLVQAGGSLRLSCAASGSIFRWNAMGWYRQAPGKERELVAAIDSGGSTYADSVKGRFTISRDNAKNTVYLQMNSLKPEDTAVYYCAAEIPDEWPYDYWGQGTQVTVSS : its polyreactivity (PSR sort gate) reads low polyreactivity

Noted for QVQLVESGGGLVKAGGSLGLSCAASGSIFGVNAMGWYRQAPGKERELVAAISKRGGTTYYADSVKGRFTISRDNAKNTVYVQRHSLKPEDTAVYYCNAPYLWNYYGGRYDYWGQGTQVTVSS : its polyreactivity (PSR sort gate) reads high polyreactivity
